molecular target: T1, recombinant human VEGF165 (Sino biological) (human, UniProt P15692-4 27-191); experiment: Octet red96E BLI, VEGF165 amine-coupled on AR2G sensor, antibody as analyte, 30 C
T1 construct: Sino Biological VEGF165 was used in the Octet assay
T1 sequence (P15692 other isoform, or with tags, fused parts or gaps limits assumed): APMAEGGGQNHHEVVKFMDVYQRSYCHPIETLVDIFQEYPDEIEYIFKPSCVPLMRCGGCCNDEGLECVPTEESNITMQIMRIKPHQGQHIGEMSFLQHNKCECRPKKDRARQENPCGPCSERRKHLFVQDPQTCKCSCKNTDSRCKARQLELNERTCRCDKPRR
Below, each entry is listed alongside its reported kon.
Provide only the numeric value, understood in M⁻¹ s⁻¹.

Reference set, count: 3
stdin: Return reported kon; argument: Hz1 (humanized antibody made with SEQ ID NO 28 and SEQ ID NO 29) (antibody, V domains shown, Whole IgG from vector pCEP6-WPRE with an Fc part) VH: EVQLVESGGGLVKPGGSLRLSCAASGIDLNRYSLTWVRQAPGKGLEWVGIVGGSGVTYYANWAKGRFTISRDSAKNSLYLQMNSLRAEDTAVYFCARGSDRSAYAPDIWGPGTLVTVSS VL: DIQMTQSPSSLSASVGDRVTINCQSSQSIYSNNYLAWYQQKPGKPPKLLLYQASKLASGVPSRFSGSGSGTDFTLTISSLQPEDVATYYCLGVYDDDADNAFGGGTELEIKR
stdout: 685000

stdin: Next entry: Lu007 (SEQ ID NO 33, SEQ ID NO 34) (antibody, V domains shown, Tested as a purified whole antibody, detected with anti-hIgG-Fc; also called variant ranibizumab; variant Lucentis) VH: EVQLVESGGGLVQPGGSLRLSCAASGYDFTHYGMNWIRQAPGKGLEWVGWINTYTGEPTYAADFKRRFTFSLDTSKSTVYLQMNSLRAEDTAVYYCAKYPHYYGTSHWYFDVWGQGTLVTVSS VL: DIQLTQSPSSLSASVGDRVTITCSASQDISNYLNWYQQKPGKAPKVLIYFTSSLHSGVPSRFSGSGSGTDFTLTISSLQPEDFATYYCQQYSTVPWTFGQGTKVEIKR
stdout: 237000

stdin: Param item: Hz2-F (antibody with SEQ ID NO 32 and SEQ ID NO 31) (antibody, human IgG1, L234A L235A, V domains shown, copies: 2 + 2) VH: EVQLVESGGGLVQPGGSLRLSCAVSGIDLNRYSLTWIRQAPGKGLEWVAIVGGSGVTYYANWAKGRFTISRDDSKNTLYLQMNSLRAEDTAVYYCARGSDRSAYAPDIWGQGTLVTVSS VL: DIQLTQSPSSLSASVGDRVTITCQSSQSIYSNNYLAWYQQKPGKAPKLLLYQASKLASGVPSRFSGSGSGTDFTLTISSLQPEDFATYYCLGVYDDDADNAFGQGTKVEIKR
stdout: 775000

Consider now this further binder.
stdin: Look up kon: Hz2 (humanized antibody made with SEQ ID NO 30 and SEQ ID NO 31) (antibody, V domains shown, Whole IgG from vector pCEP6-WPRE with an Fc part) VH: EVQLVESGGGLVQPGGSLRLSCAVSGIDLNRYSLTWIRQAPGKGLEWVAIVGGSGVTYYANWAKGRFTISRDDSKNTLYLQMNSLRAEDTAVYYCARGSDRSAYAPDIWGQGTLVTVSS VL: DIQLTQSPSSLSASVGDRVTITCQSSQSIYSNNYLAWYQQKPGKAPKLLLYQASKLASGVPSRFSGSGSGTDFTLTISSLQPEDFATYYCLGVYDDDADNAFGQGTKVEIKR
stdout: 505000
